Recorded pEC50, one value per entry.
Substrate: NP of A/Brisbane/59/2007(H1N1/H1B) (influenza A virus A/Brisbane/59/2007 (H1N1))
Assay: sandwich ELISA, capture IgG; NP of lysed virus titrated; HRP-NP16 detection
pEC50: −log10 of the molar value.
reported property: pEC50

binder="NP6 (antibody, V domains shown) VH: EVQLVESGGGLVQPGGSLRLSCAASGFTINDGSIHWVRQAPGKGLEWVAGIGPFGGFTYYADSVKGRFTISADTSKNTAYLQMNSLRAEDTAVYYCARSGYSGSFDYWGQGTLVTVSS VL: DIQMTQSPSSLSASVGDRVTITCRASQDVYFGVAWYQQKPGKAPKLLIYGTSYLYSGVPSRFSGSGSGTDFTLTISSLQPEDFATYYCQQFSNWPITFGQGTKVEIKR" numeric_value=7.11
binder="NP15 (antibody, V domains shown) VH: EVQLVESGGGLVQPGGSLRLSCAASGFTISNWYIHWVRQAPGKGLEWVAGIGPYGGSTYYADSVKGRFTISADTSKNTAYLQMNSLRAEDTAVYYCARFHWDHLHGMDYWGQGTLVTVSS VL: DIQMTQSPSSLSASVGDRVTITCRASQDVDNNVAWYQQKPGKAPKLLISYSTGLYSGVPSRFSGSGSGTDFTLTISSLQPEDFATYYCQQYWNYPITFGQGTKVEIKR" numeric_value=8.34
binder="NP5 (antibody, V domains shown) VH: EVQLVESGGGLVQPGGSLRLSCAASGFTISNGSIHWVRQAPGKGLEWVAGIWPSGGSTSYADSVKGRFTISADTINNSAYLQMNSLRAEDTAVYYCARWNYWGQGTLVTVSS VL: DIQMTQSPSSLSASVGDRVTITCRASQDVGWSVAWYQQKPGKAPKLLIYGSRWLYSGVPSRFSGSGSGTDFTLTISSLQPEDFATYYCQQGYNGPLTFGQGTKVEIKR" numeric_value=8.40
